Measured on: T1, CD27 expressed on the cell surface (HT1080_CD27 cells) (human, UniProt P26842 20-260)
T1 sequence (looked up): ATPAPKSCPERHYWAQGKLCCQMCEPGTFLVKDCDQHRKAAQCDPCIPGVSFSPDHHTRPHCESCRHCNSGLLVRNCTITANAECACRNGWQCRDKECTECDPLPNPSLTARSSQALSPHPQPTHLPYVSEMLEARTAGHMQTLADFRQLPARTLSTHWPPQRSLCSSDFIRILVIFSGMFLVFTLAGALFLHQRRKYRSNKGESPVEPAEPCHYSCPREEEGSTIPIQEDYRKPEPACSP
Test description: cell-based or functional assay; also: test concentration or dose not given here
Measurement kind: IL-8 [abs. corr.]
# do not omit the unit; it follows the number

Completed entries (count: 3):
{"columns": ["Binder", "Result"],
 "data": [
  ["P018.S.10.A.A04 (antibody, V domains shown, V regions on human Ig constant parts; also called AB27_164) VH: QSVEESGGRLVTPGTPLTLTCTVSGIDLSSNVMTWVRQAPGKGLEWIGYIYASATTYYATWAKGRFTISKTSTTVDLKMTSPTTEDTATYFCARERLASRGDYSDLWGQGTLVTVSS VL: AYDMTQTPASVEAAVGGTVTIKCQASESIGDLLAWYQQKPGQPPKLLIYDASDLASGVPSRFKGSGSGTEFTLTISGVESADAATYYCQQGYTTTSNVDNIFGGGTEVVVK", "1.78 abs. corr."],
  ["P018.S.07.A.G04 (antibody, V domains shown, V regions on human Ig constant parts; also called AB27_130) VH: QSLEESGGRLVTPGTPLTLTCTVSGIDLSSYAMGWVRQAPGKGLEYIAIIYTTNRTHYATWAKGRFTISKSSTTVDLKATSLTTEDTATYFCGRYGRGSGGYYYGMDLWGPGTLVTVSS VL: DIVMTQTPASVEAAVGGTVTIKCQASQSGDNYCSWYQQKPGQPPKLLIYQASKLTSGVPSRFRGSRSGTEYTLTISDLESADAATYYCQNYCAGSGVCLGIAFGGGTEVVVK", "0.274 abs. corr."],
  ["P018.S.04.A.D05 (antibody, V domains shown, V regions on human Ig constant parts; also called AB27_73) VH: QSLEESGGRLVTPGTPLTLTCTASGIDLSRHAINWVRQAPGKGLEYIGTIYASGSTFYASGAKGRFTISKTSTTVDLGITSLTTEDTATYFCARGITIEWFDLWGQGTLVTVSS VL: AAVLTQTPSSVSAAVGGTVTINCQSSPSVYSNYLSWFQQKPGQPPKLLIYGAATLASGVPSRFRGSGSGTEFTLTITDVQSDDAATYYCLGGYSDTADTIFGGGTEVVVK", "0.241 abs. corr."]
]}

Kindly review the next binder as well.
Record summary for P018.S.06.A.C02 (antibody, V domains shown, V regions on human Ig constant parts; also called AB27_100) VH: QSVEESGGRLVTPGTPLTLTCIVSGIDLSSNAMSWVRQAPGKGLEWIGIIGFAGITYYANWAKGRFTISKTSTTVDLKITSPTTEDTATYFCARAYGDSDGLYNLWGQGTLVTVSS VL: AQVLTQTASSVSAAVGGTVTISCQSSESVYNNNWLGWFQQKPGQPPKLLIYLASTLASGVPSRFKGSGSGTQFTLTISDLESDDAATYYCQGGYSGNIFAFGGGTEVVVN : reported IL-8 [abs. corr.] = 0.519 abs. corr.
